Every entry's value here was drawn from PubChem BioAssay (NCATS).

- Assay: Cell Viability - LYMP2-015 (AID 971);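 note: cells exposed to compound for 24 h; 0% = DMSO only and full effect = 92 µM tetraoctylammonium bromide; nearly all actives have a fitted effect of over 55% in size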
- Condition parameters: LYMP2-015 lymphoblastoid cell viability; series mostly up to 92.2 µM
- Excerpt: NIH Chemical Genomics Center [NCGC] NIH Molecular Libraries Screening Centers Network [MLSCN] National Institutes of Environmental Health Sciences [NIEHS] National Toxicology Program [NTP] We have developed a 1536-well cell-based assay for quantitative high throughput screening (qHTS) against a number of cell lines to determine in vitro cytotoxicity of small molecules. […] 8. Detection; Luminescence; Viewlux plate reader […]
Records with an inconclusive call do not appear. The source made the active and inactive calls. Calls come from the whole dose curve; as a rule, active = well fitted cell-killing curve with a large enough effect; inconclusive = small, poorly fitted or top-dose-only effect; inactive = flat fitted curve, though single readings scatter.
API: response.call in 1 = active, -1 = inactive

C=Cc1cccc(C)c1 : -1
Cc1ccc(N)cc1[N+](=O)[O-] : -1
CC(C)COC(=O)COc1cc(Cl)c(Cl)cc1Cl : -1
CC(CCC(=O)O)(c1ccc(O)cc1)c1ccc(O)cc1 : -1
c1cc2c3c(c1)ccc1cccc(c13)C2 : -1
Brc1cc(Oc2cc(Br)c(Br)c(Br)c2Br)c(Br)c(Br)c1Br : -1

For `C/C(Cl)=C/CCl` , which call appears in the assay record?
-1

* * *

- Assay: Cell Viability - N2a (AID 540);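 note: cells exposed to compound for 40 h at 37 °C; plate controls were DMSO alone for no effect and tamoxifen control for full effect; nearly all actives have a fitted effect of over 45% in size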
- Condition parameters: N2a mouse neuroblastoma cell viability; at 92.2 µM (top of the series)
Records with an inconclusive call do not appear. Activity calls are given as the source filed them. The call rests on the fitted dose curve; in most records, active means well fitted cell-killing curve with a large enough effect; inconclusive means small, poorly fitted or top-dose-only effect; inactive means flat fitted curve, though single readings scatter.
We begin with a simple list: items and their reported activity change, negative = cytotoxicity.

C=Cc1cccc(C)c1 : -2.59% (inactive)

Provide activity change, negative = cytotoxicity value for the following molecule: `O=C1c2ccccc2C(=O)C1(O)O`
-94.6% (active)

* * *

We begin with a simple list: items and their reported activity, negative = inhibition.
- Assay: Stat Signaling Pathway (AID 446);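 note: ME-180 cervical cancer cells given 40 pM IL-6 alongside compound; SIE-controlled beta-lactamase reporter measured as 460/530 nm FRET emission ratio; % is set by controls: 0 for no effect and ±100 for the full control effect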
- Condition parameters: ME-180 (cervical carcinoma) SIE beta-lactamase reporter, IL-6 stimulated, 5 h; at 7.69 µM (top of the series) unless noted
Records with an inconclusive call do not appear. Activity calls are given as the source filed them. Calls come from the whole dose curve; as a rule, active = well fitted curve in either direction with a large enough effect (not every such curve was filed as active); inconclusive = small, poorly fitted or top-dose-only effect, or another doubt; inactive = flat fitted curve, though single readings scatter.

Previously resolved entries follow.
O=P(O)(CCP(=O)(O)c1ccccc1)c1ccccc1 : 1.66% (inactive)
O=C(O)C/C(=C\c1ccccc1)C(=O)O : 10.5% (inactive)
Br/C(=N\Nc1nn[nH]n1)c1ccncc1 : 1.9% (inactive)
CN1CCc2cc(Cl)c(O)cc2[C@H](c2ccccc2)C1 : 19.6% [at 38 µM] (inactive)
O=C(CSC1=NCCN1)Nc1ccccc1 : -2.98% (inactive)

Provide activity, negative = inhibition value for the following compound: `Cc1cc(=O)oc2c(OS(C)(=O)=O)c(OS(C)(=O)=O)ccc12`
4.16% (inactive)

Provide activity, negative = inhibition value for the following compound: `CN(C)c1ccc(C(c2ccc(N(C)C)cc2)c2ccc([N+](=O)[O-])cc2)cc1`
14.9% (inactive)

* * *

- System tested: Cytochrome P450 2C19 (Homo sapiens) (UniProt P33261)
- Sequence (P33261 whole entry, looked up): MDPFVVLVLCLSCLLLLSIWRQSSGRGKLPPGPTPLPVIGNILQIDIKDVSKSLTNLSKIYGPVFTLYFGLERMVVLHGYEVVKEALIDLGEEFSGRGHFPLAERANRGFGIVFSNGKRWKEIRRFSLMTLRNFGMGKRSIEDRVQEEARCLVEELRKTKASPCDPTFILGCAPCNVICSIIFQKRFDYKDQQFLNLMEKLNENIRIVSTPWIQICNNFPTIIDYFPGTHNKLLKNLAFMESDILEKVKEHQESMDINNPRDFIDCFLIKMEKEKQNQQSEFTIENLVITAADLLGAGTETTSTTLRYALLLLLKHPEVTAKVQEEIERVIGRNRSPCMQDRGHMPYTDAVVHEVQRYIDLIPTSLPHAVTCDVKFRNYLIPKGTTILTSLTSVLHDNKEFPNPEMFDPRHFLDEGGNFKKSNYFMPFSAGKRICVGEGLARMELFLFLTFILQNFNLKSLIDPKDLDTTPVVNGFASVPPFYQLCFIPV
- Assay: qHTS Assay for Inhibitors and Substrates of Cytochrome P450 2C19 (AID 899); note: nearly all actives have a fitted effect of over 60% in size
- Condition parameters: recombinant CYP2C19, luciferin-H EGE luminescence; series mostly up to 11.4 µM
Inconclusive results are not listed. Calls of active or inactive are those of the source. The call rests on the fitted dose curve; in most records, active means well fitted inhibition curve with a large enough effect; inconclusive means small, poorly fitted or top-dose-only effect; inactive means no such curve, though single readings can be large or run the other way.
API: response.call in YES = active, NO = inactive

For `Oc1ccccc1C(Sc1nc2ccccc2s1)Sc1nc2ccccc2s1` , which call appears in the assay record?
YES

For `COC(=O)[C@@H]1[C@H]2C[C@H]3c4[nH]c5cc(OC)ccc5c4CCN3C[C@@H]2C[C@@H](OC(=O)c2cc(OC)c(OC)c(OC)c2)[C@@H]1OC` , which call appears in the assay record?
NO

For `Cc1cn(CC[C@H](N)C(=O)O)c(=O)[nH]c1=O` , which call appears in the assay record?
NO

For `CC(C)(C)c1ccc(O)c(CN(Cc2cc(C(C)(C)C)ccc2O)C2CCCCC2)c1` , which call appears in the assay record?
YES

* * *

We begin with a simple list: items and their reported activity change, negative = inhibition.
- Assay: NFAT Signaling Pathway (AID 444);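 note: carbachol stimulus at about its EC50 of 1 µM final; % is set by controls: 0 for no effect and ±100 for the full control effect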
- Condition parameters: Jurkat NFAT-bla M1, carbachol, beta-lactamase ratio, 5 h; at 7.69 µM (top of the series) unless noted
- Experimental: NCGC Assay Overview: The nuclear factor of activated T cells (NFAT) family of transcription factors has been found primarily in most immune system cells and some other non-immune cells. NFAT plays the immunomodulatory role, primarily in T-cell activation and differentiation. […] NCGC Assay Protocol Summary: The cells were prepared in RPMI 1640 medium containing 0.1% dialyzed FBS and 25 mM HEPES at 1.6 x 10^6cell/ml. […] The %Activity was determined from the ratio of 460nm/530nm. […]
Inconclusive results are not listed.
Answer in %, number only, no unit symbol.

C[C@@H](CNC(N)=O)NC(N)=O : 12.2

Provide activity change, negative = inhibition value for the following compound: `COc1ncc2nc(C)c(=O)n(C)c2n1`
-2.54

* * *

We begin with a simple list: items and their reported activity change, negative = inhibition.
- System tested: Cytochrome P450 1A2 (Homo sapiens) (UniProt P05177)
- Sequence (P05177 whole entry, looked up): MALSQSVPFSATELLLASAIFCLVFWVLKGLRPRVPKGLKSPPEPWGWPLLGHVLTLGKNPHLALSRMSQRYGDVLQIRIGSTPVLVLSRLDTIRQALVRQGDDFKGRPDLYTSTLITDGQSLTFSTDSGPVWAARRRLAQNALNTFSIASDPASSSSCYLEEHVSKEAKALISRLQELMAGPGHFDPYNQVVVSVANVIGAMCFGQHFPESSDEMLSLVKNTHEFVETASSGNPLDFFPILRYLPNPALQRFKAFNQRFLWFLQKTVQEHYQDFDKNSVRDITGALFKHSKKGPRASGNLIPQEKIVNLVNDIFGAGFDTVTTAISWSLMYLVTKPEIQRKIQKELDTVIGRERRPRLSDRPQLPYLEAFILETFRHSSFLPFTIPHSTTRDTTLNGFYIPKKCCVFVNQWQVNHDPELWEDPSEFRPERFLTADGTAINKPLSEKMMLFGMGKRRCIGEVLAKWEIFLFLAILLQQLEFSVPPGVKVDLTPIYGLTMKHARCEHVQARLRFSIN
- Assay: p450-cyp1a2 (AID 410);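 note: -100% = full effect of reference inhibitor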
- Condition parameters: recombinant CYP1A2, luciferin-ME demethylation, luminescence; series mostly up to 11.4 µM
Results filed as inconclusive are left out. The source made the active and inactive calls. The call rests on the fitted dose curve.

Previously resolved entries follow.
O=C(Cn1ccc(=O)[nH]c1=O)Nc1ccc(C(=O)O)c(O)c1 : -16.5% [at 2.29 µM] (inactive)
Nc1ncnc2c([C@@H]3O[C@@H](CO)[C@H](O)[C@@H]3O)nsc12 : -16.8% [at 2.29 µM] (inactive)
N[C@@H](CSCc1ccc(I)cc1)C(=O)O : -12% [at 2.29 µM] (inactive)
Cc1cc(Cl)ccc1OCC(=O)Nc1nc(N)nc(N)n1 : 2.1% [at 2.29 µM] (inactive)
Nc1cccc2nsnc12 : -15.3% [at 2.29 µM] (inactive)
COc1ccc(-c2cc([C@H](O)[C@@H]3CCCCN3)c3ccccc3n2)cc1 : -11% [at 2.29 µM] (inactive)

Provide activity change, negative = inhibition value for the following compound: `O=C1C(=O)c2ccccc2C(O)=C1C(CCc1ccccc1)C1=C(O)c2ccccc2C(=O)C1=O`
-21.3% [at 2.29 µM] (inactive)

Provide activity change, negative = inhibition value for the following compound: `CCn1c(CCCc2nc3c([nH]2)c(=O)n(C)c(=O)n3C)nc2c1c(=O)n(C)c(=O)n2C`
-16.7% [at 2.29 µM] (inactive)

Provide activity change, negative = inhibition value for the following compound: `O=C(NNS(=O)(=O)c1ccccc1)c1cccnc1`
2.2% [at 2.29 µM] (inactive)

Provide activity change, negative = inhibition value for the following compound: `O=C(Oc1ccc2c(c1)CN(Cc1ccccc1)CO2)c1ccccc1`
-14.3% [at 2.29 µM] (inactive)

Provide activity change, negative = inhibition value for the following compound: `Cc1ccc(N=Nc2c(O)c3ccccc3[nH]c2=O)c(S(=O)(=O)N(C)C)c1`
-14.6% [at 2.29 µM] (inactive)

* * *

- Test system: ATS95
- Assay: qHTS profiling for inhibitors of Plasmodium falciparum proliferation (AID 504749); note: nearly all actives have a fitted effect of over 60% in size; note: potency is the fitted concentration of half-maximal effect
- Condition parameters: P. falciparum in erythrocytes, SYBR Green DNA, 72 h; series mostly up to 28.7 µM
Inconclusive results are not listed. Activity calls are given as the source filed them. Calls come from the whole dose curve; as a rule, active = well fitted inhibition curve with a large enough effect; inconclusive = small, poorly fitted or top-dose-only effect; inactive = flat fitted curve, though single readings scatter.
Observable: Potency

Previously resolved entries follow.
N[C@@H](Cc1ccccc1)C(=O)O : inactive
CN(C)[C@H]1C(=O)C(C(=O)NCN2CCCC2)=C(O)[C@]2(O)C(=O)C3=C(O)c4c(O)cccc4[C@](C)(O)[C@H]3C[C@H]12 : inactive
COc1cccc2c1C(=O)c1c(O)c3c(c(O)c1C2=O)C[C@](O)(C(=O)CO)C[C@@H]3O[C@H]1C[C@H](N)[C@@H](O)[C@H](C)O1 : inactive
O=C(O)[C@@H](S)[C@H](S)C(=O)O : 6.31 µM (active)

Provide Potency value for the following compound: `C(=C/c1ccccc1)/CN1CCN(C(c2ccccc2)c2ccccc2)CC1`
inactive

Provide Potency value for the following compound: `CC(=O)N1CCN(c2ccc(OC[C@@H]3CO[C@@](Cn4ccnc4)(c4ccc(Cl)cc4Cl)O3)cc2)CC1`
inactive

Provide Potency value for the following compound: CN1[C@@H]2CC(OC(=O)[C@@H](CO)c3ccccc3)C[C@@H]1[C@H]1O[C@H]12 (stereo partly specified)
inactive

Provide Potency value for the following compound: `O=C(O)[C@@H](O)[C@@H](O)[C@H](O)C(=O)CO`
inactive

Provide Potency value for the following compound: `OC[C@H](S)CS`
12.6 µM (active)

Provide Potency value for the following compound: `CC1(C)[C@@H]2CC[C@]1(C)[C@@H](OC(=O)CSC#N)C2`
inactive

Provide Potency value for the following compound: `Cc1onc(-c2c(F)cccc2Cl)c1C(=O)N[C@@H]1C(=O)N2[C@H]1SC(C)(C)[C@H]2C(=O)O`
inactive

* * *

- Assay: qHTS profiling for inhibitors of Plasmodium falciparum proliferation (AID 504749); note: nearly all actives have a fitted effect of over 60% in size;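 for activity, negative = inhibition: 0% = DMSO vehicle and full inhibition = artemisinin control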
- Condition parameters: P. falciparum in erythrocytes, SYBR Green DNA, 72 h; at 28.7 µM (top of the series); parasite line B
- Procedure: NIH National Institute of Allergy and Infectious Diseases [NIAID] NIH Chemical Genomics Center [NCGC] […] Because mature erythrocytes lack DNA, only Plasmodium-derived DNA is detected. NCGC Assay Protocol Summary: The SYBR Green viability assay was adapted from a method described previously (Plouffe et al., 2008). […] The following morning, fluorescence intensity at 485(14) nm excitation and 535(25) nm emission wavelengths was measured on an EnVision (Perkin Elmer) plate reader. […]
Records with an inconclusive call do not appear.
Observable: activity, negative = inhibition (%)
Answer in %, number only, no unit symbol.

Previously resolved entries follow.
Cc1onc(-c2c(F)cccc2Cl)c1C(=O)N[C@@H]1C(=O)N2[C@H]1SC(C)(C)[C@H]2C(=O)O : 6.57
COc1cccc2c1C(=O)c1c(O)c3c(c(O)c1C2=O)C[C@](O)(C(=O)CO)C[C@@H]3O[C@H]1C[C@H](N)[C@@H](O)[C@H](C)O1 : 5.26
NS(=O)(=O)c1cc2c(cc1Cl)N[C@H](Cc1ccccc1)NS2(=O)=O : -2.36

Provide activity, negative = inhibition value for the following molecule: `Cc1cn([C@H]2C[C@H](N=[N+]=[N-])[C@H](CO)O2)c(=O)[nH]c1=O`
2.08
